IC50 reference
system: HDAC I/II; assay: HDAC-Glo I/II assay in HCT116 cells; format: cell-based, human; conditions: read-out: HDAC-Glo: IC50, HCT116; cherry-pick confirmation, 11 concentrations, 1 hour

{"COMPOUND": "O=C(CCCCCN1C(=O)c2cccc3cccc(c23)C1=O)NO [Scriptaid]", "IC50 [nM]": 1870}
{"COMPOUND": "CC(C)(C)OC(=O)Nc1ccc(-c2cc(C(=O)NCCCCCCC(=O)NO)no2)cc1 [ISOX]", "IC50 [nM]": 2320}
{"COMPOUND": "Oc1cc(O)cc(/C=C/c2ccc(O)c(O)c2)c1 [Piceatannol]", "IC50 [nM]": 5900}
{"COMPOUND": "Cc1nc(-c2ccc(OCC(C)C)c(C#N)c2)sc1C(=O)O [Febuxostat]", "IC50 [nM]": 2380}
